- Tested on: Saccharomyces cerevisiae;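 further: PSI is a weighted mean of sequencing reads over stability bins, variants kept only with over 10 reads, mCherry proximal and sfGFP distal, peptide attached via GGGS linker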
- TEST_METHOD_NOTES: protein stability index of tFT-peptide fusion (C-terminal peptide) (PSI (0-1 scale)); higher = more stable (slower turnover)
- STUDY_CONDITIONS: genetic background: wild type; temperature: 30 C
Param threshold (0.6) applies to protein stability index; output satisfied when value >= threshold, not satisfied when value < threshold.

SEQ: GIVRGFGGGGEE
CATEGORY: satisfied
--
SEQ: ADGLVGLLLSVV
CATEGORY: satisfied
--
SEQ: GVEGDPESKGRV
CATEGORY: satisfied
--
SEQ: GRNCGHSCANRP
CATEGORY: satisfied
--
SEQ: SPPPLFLIVLHL
CATEGORY: not satisfied
--
SEQ: SPGDVVVAVGGG
CATEGORY: satisfied
--
SEQ: LSVAYSDIIVRC
CATEGORY: not satisfied
--
SEQ: PRSRSGVAQGPE
CATEGORY: satisfied
--
SEQ: LACCGGLVTWVL
CATEGORY: satisfied
--
SEQ: RLEDGCGVGAGR
CATEGORY: satisfied
--
SEQ: ISYQVDIIKGKI
CATEGORY: satisfied
--
SEQ: TNRNGQQRWEKG
CATEGORY: satisfied
--
SEQ: HSIPPPRRHPTI
CATEGORY: satisfied
--
SEQ: WYYTCSEFSIYN
CATEGORY: satisfied
--
SEQ: LLPPSPSSRPLF
CATEGORY: satisfied
--
SEQ: PLHYPTPCHPLP
CATEGORY: satisfied
--
SEQ: KKKKKSEIPKIT
CATEGORY: satisfied
--
SEQ: FSCRRISFFLLV
CATEGORY: not satisfied
--
SEQ: SPSLPSLNRCSL
CATEGORY: satisfied

Measured values drawn from the supplement of paper PMC10724198 for this set.
